B1: HDV Ribozyme (parent)
chain: GGCCGGCAUGGUCCCAGCCUCCUCGCUGGCGCCGGCUGGGCAACAUUCCGAGGGGACCGUCCCCUCGGUAAUGGCGAAUGGGACCCA

# Variants of: B1
# ASSAY SUMMARY: self-cleavage, relative activity (ratio to wild type); higher = more cleavage; co-transcriptional
READOUT KIND: self-cleavage
Give the value as a plain number.

Query: Report self-cleavage for C49A A78G
Response: 0.665

Query: Consider the variant C13U C75A . State its measured self-cleavage.
Response: 0.148

Query: Please supply the value of reported self-cleavage for the item C13A A16U
Response: 0.536

Query: Tell us which self-cleavage value is on record for U60C U69C
Response: 1.2

Query: Annotate the variant A71U A87G with its measured self-cleavage.
Response: 0.831

Query: Answer with reported self-cleavage of U9C G39A
Response: 0.567

Query: Tell me self-cleavage reported for U20C G68C
Response: 0.192

Query: Item C48G G50U : provide self-cleavage
Response: 0.941

Query: Find the measured self-cleavage of A16G G25A and report it.
Response: 0.192

Query: Fill in reported self-cleavage for this entry: C7A A87G
Response: 0.521

Query: Annotate the variant C64G G76C with its measured self-cleavage.
Response: 0.702

Query: Determine from records and report self-cleavage for G38C C49G
Response: 0.156

Query: Hello, please tell me recorded self-cleavage for this one: C21G G31U
Response: 0

Query: Assign self-cleavage to the following record: C18G C64U
Response: 0.147

Query: Annotate the variant G59C A77U with its measured self-cleavage.
Response: 0.534

Query: Hello, please tell me recorded self-cleavage for this one: G6U U27C
Response: 0.237

Query: Fill in self-cleavage for record C18U C30U
Response: 0.185

Query: Respond only with self-cleavage recorded for G52C A87G
Response: 0.985

Query: Return the recorded self-cleavage value; entry: G17U G76C
Response: 0.751

Query: Kindly indicate its recorded self-cleavage. Item: C3A C44G
Response: 0.0615

Query: Fill in self-cleavage for record G39U G74U
Response: 0.382

Query: Give the reported value of self-cleavage for this record: C41A G55C
Response: 0.831

Query: Answer with the recorded self-cleavage of A8G G59U only.
Response: 0.914

Query: # return recorded self-cleavage for input G17U C58A
Response: 0.847

Query: Specify measured self-cleavage for G17C G50U .
Response: 0.332

Query: Entry C4U C7A needs its self-cleavage filled in; supply it.
Response: 0.104

Query: Please give measured self-cleavage of the following entry: G17C G35A
Response: 0.147

Query: Indicate the recorded self-cleavage value for this variant: G31C G39U
Response: 0.277

Query: Note self-cleavage for the variant shown: U9G U72G
Response: 0.776

Query: Give the reported value of self-cleavage for this record: A8G G67U
Response: 0.978

Query: Please supply the value of reported self-cleavage for the item G25U G76A
Response: 0

Query: Output measured self-cleavage for this item: G2C C15G
Response: 0

Query: Read the entry A43G G67C and write its reported self-cleavage.
Response: 0.465

Query: Output measured self-cleavage for this item: U12G A77C
Response: 0

Query: Identify measured self-cleavage corresponding to U69G G82U
Response: 0.208

Query: Provide only the value of recorded self-cleavage for C3A C64A
Response: 0.564

Query: Kindly indicate its recorded self-cleavage. Item: C3G G35C
Response: 1.48

Query: Report self-cleavage, nothing else, for this variant: C36G G50U
Response: 0.101

Query: Specify reported self-cleavage for the variant shown: C41U G53A
Response: 1.12

Query: Provide one value: measured self-cleavage of G17A C24G
Response: 0.0791

Query: Output self-cleavage of G55A U65C
Response: 0.863

Query: Let me know recorded self-cleavage for C33G U37G , thanks.
Response: 0.161

Query: Indicate its recorded self-cleavage; the variant in question is G35U A87C
Response: 0.432

Query: Look up self-cleavage of C61U G67U and report it.
Response: 0.842

Query: Quick one: give measured self-cleavage for G53C U79C
Response: 0.47

Query: Annotate the variant C4A U37A with its measured self-cleavage.
Response: 0.0332
